- Measured on: Cathepsin G (Homo sapiens)
- Sequence (P08311 whole entry): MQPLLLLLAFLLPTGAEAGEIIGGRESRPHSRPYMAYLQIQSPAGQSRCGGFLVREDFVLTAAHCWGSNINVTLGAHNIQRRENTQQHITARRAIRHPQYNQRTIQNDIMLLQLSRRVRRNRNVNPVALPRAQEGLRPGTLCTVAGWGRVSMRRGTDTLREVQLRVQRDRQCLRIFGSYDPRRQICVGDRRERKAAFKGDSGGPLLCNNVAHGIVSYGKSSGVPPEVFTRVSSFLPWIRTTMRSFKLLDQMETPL
Please find below IC50 measurements for Cathepsin G (Homo sapiens), combined from several publications.
Observable: IC50

CCCC(Cn1c(=O)n(Cc2cc(Br)cc3c2CC(=O)N3)c2ccccc21)C(=O)O (stereo not drawn) : > 10 µM
C/C(=N/O)c1ccccc1NS(=O)(=O)c1ccc(OC(=O)C(C)(C)C)cc1 : > 10 µM
CCC/C(=N/O)c1ccccc1NS(=O)(=O)c1ccc(OC(=O)C(C)(C)C)cc1 : > 10 µM
C=CCN(CC(=O)O)C(=O)/C(C)=C/c1ccc(C(=O)Oc2ccc(C(=N)N)cc2)cc1.CS(=O)(=O)O : > 100 µM
Cc1c(C)n(C)c2c(Cn3c(=O)n(CCC(=O)O)c4ccccc43)c(Cl)ccc12 : > 10 µM
CC(C)(C)C(=O)Oc1ccc(S(=O)(=O)Nc2ccccc2C(=O)OCCO)cc1 : > 10 µM
Cn1c(-c2ccccn2)c(C2CCCC2)c2ccc(C(=O)NC3(C(=O)Nc4ccc(/C=C/C(=O)O)cc4)CCC3)cc21 : < 10 µM
N=C(N)Nc1ccc(C(=O)Oc2ccc(CC(=O)O)cc2)cc1 : > 100 µM
CC/C(=N/O)c1ccccc1NS(=O)(=O)c1ccc(OC(=O)C(C)(C)C)cc1 : > 10 µM
O=C(O)CCn1c(=O)n(Cc2cccc3ccccc23)c2ccccc21 : > 10 µM
COC(=O)c1ccccc1NS(=O)(=O)c1ccc(NC(=O)C(C)(C)C)cc1 : > 10 µM
Cc1cc2cccc(Cn3c(=O)n(CCC(=O)O)c4ccccc43)c2n1C : > 10 µM
CCOC(=O)c1ccccc1NC(=O)c1ccc(OC(=O)C(C)(C)C(F)(F)F)cc1 : > 10 µM
CCOC(=O)c1ccccc1NC(=O)c1ccc(OC(=O)C(C)(C)C)cc1 : > 10 µM
CC(C)(C)C(=O)Oc1coc(CSc2nc3cc(C(=O)O)ccc3o2)cc1=O : > 100 µM
COC(=O)c1ccc(NS(=O)(=O)c2sc3ccc(F)cc3c2C)c(S(C)(=O)=O)c1 : > 10 µM
CC(C)[C@@H]1C(=O)N(S(C)(=O)=O)[C@@H]2CCN(C(=O)/C=C/CN3CCCCC3)[C@H]21.Cl : > 100 µM
Cc1cccc2c(C#N)cc(Cn3c(=O)n(CCC(=O)O)c4ccccc43)n12 : > 10 µM
